Provenance of the data: ChEMBL document CHEMBL6177998

- MEASURED ON: Protein cereblon/Androgen receptor (Homo sapiens, UniProt P10275+Q96SW2)
- Sequence (P10275 whole entry, looked up): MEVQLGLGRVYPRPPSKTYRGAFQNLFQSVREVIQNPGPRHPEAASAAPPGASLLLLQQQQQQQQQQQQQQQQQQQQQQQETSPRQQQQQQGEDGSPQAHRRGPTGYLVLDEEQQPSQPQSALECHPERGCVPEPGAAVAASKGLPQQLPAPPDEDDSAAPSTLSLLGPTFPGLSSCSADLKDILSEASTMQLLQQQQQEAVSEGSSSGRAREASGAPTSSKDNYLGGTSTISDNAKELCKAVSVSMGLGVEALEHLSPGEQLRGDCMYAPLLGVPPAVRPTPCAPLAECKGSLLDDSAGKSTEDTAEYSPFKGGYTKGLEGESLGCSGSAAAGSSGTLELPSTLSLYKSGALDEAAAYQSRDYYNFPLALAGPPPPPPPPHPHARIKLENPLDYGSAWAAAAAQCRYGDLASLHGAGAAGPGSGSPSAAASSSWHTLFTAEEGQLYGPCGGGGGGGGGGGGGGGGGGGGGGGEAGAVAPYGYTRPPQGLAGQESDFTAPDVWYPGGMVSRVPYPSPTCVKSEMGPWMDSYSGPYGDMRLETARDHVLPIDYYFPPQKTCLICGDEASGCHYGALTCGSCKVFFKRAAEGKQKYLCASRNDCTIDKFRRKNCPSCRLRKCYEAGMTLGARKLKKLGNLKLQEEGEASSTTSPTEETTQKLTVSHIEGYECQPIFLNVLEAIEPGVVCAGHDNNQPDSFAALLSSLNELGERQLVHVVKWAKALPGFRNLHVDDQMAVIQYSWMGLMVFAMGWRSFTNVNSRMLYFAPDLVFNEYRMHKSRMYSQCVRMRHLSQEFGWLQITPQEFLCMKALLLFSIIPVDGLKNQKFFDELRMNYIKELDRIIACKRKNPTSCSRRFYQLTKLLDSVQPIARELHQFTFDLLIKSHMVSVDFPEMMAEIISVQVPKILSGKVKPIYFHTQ
- Sequence (Q96SW2 whole entry, looked up): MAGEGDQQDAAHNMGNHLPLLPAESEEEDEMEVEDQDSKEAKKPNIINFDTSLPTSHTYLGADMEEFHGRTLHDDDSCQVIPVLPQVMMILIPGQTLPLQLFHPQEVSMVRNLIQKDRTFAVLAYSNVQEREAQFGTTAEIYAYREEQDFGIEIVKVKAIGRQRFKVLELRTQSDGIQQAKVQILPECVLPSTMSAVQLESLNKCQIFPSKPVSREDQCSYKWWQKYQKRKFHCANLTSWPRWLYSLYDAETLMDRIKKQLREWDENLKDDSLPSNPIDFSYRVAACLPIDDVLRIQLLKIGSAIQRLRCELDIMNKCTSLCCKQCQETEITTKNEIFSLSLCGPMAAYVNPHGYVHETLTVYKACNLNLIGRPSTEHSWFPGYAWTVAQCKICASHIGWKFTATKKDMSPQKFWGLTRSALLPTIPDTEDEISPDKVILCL
- ASSAY REMARKS: PROTAC activity at CRBN/AR in human 22Rv1 cells assessed as induction of AR degradation at 5 uM incubated for 24 hrs by Western blot analysis relative to control
- Format: cell-based
MEASUREMENT KIND: Activity (%)

(a) CC(C)(c1ccc(OCC2CCN(C(=O)CCCCCCNc3cccc4c3C(=O)N(C3CCC(=O)NC3=O)C4=O)CC2)cc1)c1ccc(OC[C@H](O)CCl)cc1 (stereo partly drawn)
(b) CC(C)(c1ccc(OCC2CCN(C(=O)CCCCNc3cccc4c3C(=O)N(C3CCC(=O)NC3=O)C4=O)CC2)cc1)c1ccc(OC[C@H](O)CCl)cc1 (stereo partly drawn)
Select one. Lower Activity: a or b Bench note: the answer is the label of the chosen record. b
(b: 22.3%, a: 38%)

---

- ASSAY REMARKS: Clearance in male ICR mouse at 2 mg/kg, iv by LC-MS/MS analysis
- Format: ADME, organism-based
- TEST CONTEXT: in vivo
MEASUREMENT KIND: clearance (mL/min/kg)
Return type: number; implicit unit mL/min/kg.

What measured clearance goes with COc1ccc(C(C)(C)c2cc(Cl)c(OCC3CCN(C(=O)CCCCCNc4ccc5c(c4)C(=O)N(C4CCC(=O)NC4=O)C5=O)CC3)c(C#N)c2)cc1 (stereo unspecified) ? 18

---

- ASSAY REMARKS: Cmax in male ICR mouse at 2 mg/kg, iv by LC-MS/MS analysis
- Assay type: ADME, organism-based
- TEST CONTEXT: in vivo
MEASUREMENT KIND: Cmax (ng/mL)
Output spec: scalar in ng/mL, unitless text.

Query (compound): COc1ccc(C(C)(C)c2cc(Cl)c(OCC3CCN(C(=O)CCCCCNc4ccc5c(c4)C(=O)N(C4CCC(=O)NC4=O)C5=O)CC3)c(C#N)c2)cc1 (stereo unspecified) ; field requested: Cmax 1120

---

- MEASURED ON: Androgen receptor (Homo sapiens, UniProt P10275)
- Sequence (P10275 whole entry): as the sequence (P10275 whole entry, looked up) above
- ASSAY REMARKS: Inhibition of wildtype AR (unknown origin) transcriptional activity transfected in HEK293T cells co-transfected with PSA-luciferase reporter and pRL-TK assessed as reduction in PSA-luciferase activity incubated for 24 hrs by luminescence based microplate reader analysis
MEASUREMENT KIND: IC50 (nM)
Numbers only; they are read as nM.

Looking for the measured IC50 of COc1ccc(C(C)(C)c2cc(Cl)c(OCC3CCN(C(=O)CCCCCNc4ccc5c(c4)C(=O)N(C4CCC(=O)NC4=O)C5=O)CC3)c(C#N)c2)cc1 (stereo unspecified) , can you help? 3.2

---

- ASSAY REMARKS: Cmax in male ICR mouse at 10 mg/kg, po by LC-MS/MS analysis
- Format: ADME, organism-based
- TEST CONTEXT: in vivo
MEASUREMENT KIND: Cmax (ng/mL)
Give just the numeric value; ng/mL need not be written.

// returns reported Cmax for input COc1ccc(C(C)(C)c2cc(Cl)c(OCC3CCN(C(=O)CCCCCNc4ccc5c(c4)C(=O)N(C4CCC(=O)NC4=O)C5=O)CC3)c(C#N)c2)cc1 (stereo unspecified) 206

---

- MEASURED ON: Protein cereblon/Androgen receptor (Homo sapiens, UniProt P10275+Q96SW2)
- ASSAY REMARKS: PROTAC activity at CRBN/AR in human VCaP cells assessed as induction of AR degradation at 5 uM incubated for 24 hrs by Western blot analysis relative to control
- Assay type: cell-based
MEASUREMENT KIND: Activity (%)

# count of solved cases: 2
- COMPOUND: "CC(C)(c1ccc(OCC2CCN(C3CN(C(=O)CCCNc4ccc5c(c4)C(=O)N(C4CCC(=O)NC4=O)C5=O)C3)CC2)cc1)c1ccc(OC[C@H](O)CCl)cc1 (stereo partly specified)"
  NUMBER: 25.4
- COMPOUND: "CC(C)(c1ccc(OCC2CCN(C(=O)CCCCCNc3cccc4c3C(=O)N(C3CCC(=O)NC3=O)C4=O)CC2)cc1)c1ccc(OC[C@H](O)CCl)cc1 (stereo partly specified)"
  NUMBER: 11.7

(P) CC(C)(c1ccc(OCC2CCN(C3CN(C(=O)CCNc4ccc5c(c4)C(=O)N(C4CCC(=O)NC4=O)C5=O)C3)CC2)cc1)c1ccc(OC[C@H](O)CCl)cc1 (stereo partly specified)
(Q) CC(C)(c1ccc(OCC2CCN(C3CN(C(=O)CCCCNc4ccc5c(c4)C(=O)N(C4CCC(=O)NC4=O)C5=O)C3)CC2)cc1)c1ccc(OC[C@H](O)CCl)cc1 (stereo partly specified)
// compare measured Activity, left P , right Q , return larger Give the label of your selection. Q

---

- System: Protein cereblon/Androgen receptor (Homo sapiens), P10275+Q96SW2 [UNDEFINED MUTATION]
- Sequence (P10275 whole entry, looked up, change not shown, canonical isoform): as the sequence (P10275 whole entry, looked up) above
- Sequence (Q96SW2 whole entry, looked up, change not shown, canonical isoform): as the sequence (Q96SW2 whole entry, looked up) above
- ASSAY REMARKS: PROTAC activity at CRBN/Androgen receptor splice variant 7 in human VCaP cells assessed as induction of AR-V7 degradation at 5 uM incubated for 24 hrs by Western blot analysis relative to control
- Type: cell-based
MEASUREMENT KIND: Activity (%)

(I) CC(C)(c1ccc(OCC2CCN(C(=O)CCCCCNc3ccc4c(c3)C(=O)N(C3CCC(=O)NC3=O)C4=O)CC2)cc1)c1ccc(OC[C@H](O)CCl)cc1 (stereo not given in full)
(II) CC(C)(c1ccc(OCC2CCN(C(=O)CCCC#Cc3ccc4c(c3)C(=O)N(C3CCC(=O)NC3=O)C4=O)CC2)cc1)c1ccc(OC[C@H](O)CCl)cc1 (stereo not given in full)
Of the two listed items, I and II , which carries the larger Activity figure? Respond using the label that marks the chosen record. I
(I: 42%, II: 5.2%)

(P) CC(C)(c1ccc(OCC2CCN(C(=O)CCCCCCCNc3cccc4c3C(=O)N(C3CCC(=O)NC3=O)C4=O)CC2)cc1)c1ccc(OC[C@H](O)CCl)cc1 (stereo not given in full)
(Q) CC(C)(c1ccc(OCC2CCN(C(=O)CCCCCOc3ccc4c(c3)C(=O)N(C3CCC(=O)NC3=O)C4=O)CC2)cc1)c1ccc(OC[C@H](O)CCl)cc1 (stereo not given in full)
// pick min by Activity: P , Q Indicate which entry you chose by stating its label. P

---

- Tested on: Protein cereblon/Androgen receptor (Homo sapiens), P10275+Q96SW2 [UNDEFINED MUTATION]
- ASSAY REMARKS: PROTAC activity at CRBN/Androgen receptor splice variant 7 in human 22Rv1 cells assessed as induction of AR-V7 degradation at 1 uM incubated for 24 hrs by Western blot analysis relative to control
- Type: cell-based
MEASUREMENT KIND: Activity (%)

Reference set (2 entries):
- COMPOUND: "CC(C)(c1ccc(OCC2CCN(C(=O)CCCC#Cc3ccc4c(c3)C(=O)N(C3CCC(=O)NC3=O)C4=O)CC2)cc1)c1ccc(OC[C@H](O)CCl)cc1 (stereo not given in full)"
  UNIT TAG: "%"
  NUMBER: 48.2
- COMPOUND: "CC(C)(c1ccc(OCC2CCN(C(=O)CCCCCCOc3ccc4c(c3)C(=O)N(C3CCC(=O)NC3=O)C4=O)CC2)cc1)c1ccc(OC[C@H](O)CCl)cc1 (stereo not given in full)"
  UNIT TAG: "%"
  NUMBER: 34.4

(I) CC(C)(c1ccc(OCC2CCN(C(=O)CCCCC#Cc3ccc4c(c3)C(=O)N(C3CCC(=O)NC3=O)C4=O)CC2)cc1)c1ccc(OC[C@H](O)CCl)cc1 (stereo not given in full)
(II) CC(C)(c1ccc(OCC2CCN(C(=O)CCCCCNc3ccc4c(c3)C(=O)N(C3CCC(=O)NC3=O)C4=O)CC2)cc1)c1ccc(OC[C@H](O)CCl)cc1 (stereo not given in full)
(III) CC(C)(c1ccc(OCC2CCN(C3CN(C(=O)CCCCNc4ccc5c(c4)C(=O)N(C4CCC(=O)NC4=O)C5=O)C3)CC2)cc1)c1ccc(OC[C@H](O)CCl)cc1 (stereo not given in full)
// smallest Activity at index 0, largest at the end # answer = labels listed in requested order III, I, II

---

- Test system: Protein cereblon/Androgen receptor (Homo sapiens), P10275+Q96SW2 [UNDEFINED MUTATION]
- ASSAY REMARKS: PROTAC activity at CRBN/Androgen receptor splice variant 7 in human VCaP cells assessed as induction of AR-V7 degradation at 5 uM incubated for 24 hrs by Western blot analysis relative to control
- Type: cell-based
MEASUREMENT KIND: Activity (%)

Example entries begin here.
- COMPOUND: "CC(C)(c1ccc(OCC2CCN(C(=O)CCCCCNc3cccc4c3C(=O)N(C3CCC(=O)NC3=O)C4=O)CC2)cc1)c1ccc(OC[C@H](O)CCl)cc1 (some centres not stated)"
  Activity (%): 36.1
- COMPOUND: "CC(C)(c1ccc(OCC2CCN(C(=O)CCCCNc3ccc4c(c3)C(=O)N(C3CCC(=O)NC3=O)C4=O)CC2)cc1)c1ccc(OC[C@H](O)CCl)cc1 (some centres not stated)"
  Activity (%): 8.2

(1) CC(C)(c1ccc(OCC2CCN(C(=O)CCCCCCNc3cccc4c3C(=O)N(C3CCC(=O)NC3=O)C4=O)CC2)cc1)c1ccc(OC[C@H](O)CCl)cc1 (some centres not stated)
(2) CC(C)(c1ccc(OCC2CCN(C3CN(C(=O)CCCNc4ccc5c(c4)C(=O)N(C4CCC(=O)NC4=O)C5=O)C3)CC2)cc1)c1ccc(OC[C@H](O)CCl)cc1 (some centres not stated)
Select one. Lower Activity: 1 or 2 Pick one and reply with its label. 1
(1: 9.2%, 2: 24.2%)
